# assayContext: in ethanol, 288.15 K
testReadout: solubility (mole fraction)
When you answer, write just the number.

What measured solubility (mole fraction) goes with O=C(O)c1cccnc1Cl ? 0.00563

====

# assayContext: in methanol, 298.15 K
testReadout: solubility (mole fraction)
When you answer, write just the number.

What measured solubility (mole fraction) goes with O=C(O)c1cccnc1Cl ? 0.00598

====

# assayContext: in NMP, 273.15 K
testReadout: solubility (mole fraction)
When you answer, write just the number.

What measured solubility (mole fraction) goes with O=C(O)c1cccnc1Cl ? 0.206

====

# assayContext: in acetonitrile, 283.15 K
testReadout: solubility (mole fraction)
When you answer, write just the number.

What measured solubility (mole fraction) goes with O=C(O)c1cccnc1Cl ? 0.00174

====

# assayContext: in acetonitrile, 303.15 K
testReadout: solubility (mole fraction)
When you answer, write just the number.

What measured solubility (mole fraction) goes with O=C(O)c1cccnc1Cl ? 0.00399

====

# assayContext: in ethanol, 273.15 K
testReadout: solubility (mole fraction)
When you answer, write just the number.

What measured solubility (mole fraction) goes with O=C(O)c1cccnc1Cl ? 0.00286

====

# assayContext: in ethanol, 293.15 K
testReadout: solubility (mole fraction)
When you answer, write just the number.

What measured solubility (mole fraction) goes with O=C(O)c1cccnc1Cl ? 0.00676

====

# assayContext: in water, 273.15 K
testReadout: solubility (mole fraction)

What measured solubility (mole fraction) goes with O=C(O)c1cccnc1Cl ? 9.1e-05

====

# assayContext: in ethyl acetate, 293.15 K
testReadout: solubility (mole fraction)
When you answer, write just the number.

What measured solubility (mole fraction) goes with O=C(O)c1cccnc1Cl ? 0.0246

====

# assayContext: in acetone, 278.15 K
testReadout: solubility (mole fraction)
When you answer, write just the number.

What measured solubility (mole fraction) goes with O=C(O)c1cccnc1Cl ? 0.0103

====

# assayContext: in n-propanol, 308.15 K
testReadout: solubility (mole fraction)
When you answer, write just the number.

What measured solubility (mole fraction) goes with O=C(O)c1cccnc1Cl ? 0.0144

====

# assayContext: in n-propanol, 288.15 K
testReadout: solubility (mole fraction)
When you answer, write just the number.

What measured solubility (mole fraction) goes with O=C(O)c1cccnc1Cl ? 0.00792

====

# assayContext: in acetonitrile, 278.15 K
testReadout: solubility (mole fraction)
When you answer, write just the number.

What measured solubility (mole fraction) goes with O=C(O)c1cccnc1Cl ? 0.00137

====

# assayContext: in acetone, 273.15 K
testReadout: solubility (mole fraction)
When you answer, write just the number.

What measured solubility (mole fraction) goes with O=C(O)c1cccnc1Cl ? 0.00893
